Source of measurements: ChEMBL document CHEMBL5518225

I'd be grateful if you could share measured t1/2 for these entries.
assay: Metabolic stability in mouse plasma assessed as half life; type: ADME, cell-free

Sure, the documented t1/2 for "CC(=O)N[C@H]1Cc2ccc(cc2)OC/C=C\CNC(=O)CC[C@@H](C(=O)N[C@@H](CCCNC(=N)N)C(=O)c2nc3ccccc3s2)NC(=O)[C@H](CC(C)C)NC1=O" is 3.93 h

Note to self: t1/2 recorded for "CC(=O)N[C@H]1CCCCn2cc(nn2)C[C@H](C(=O)N[C@@H](CCCNC(=N)N)C(=O)c2nc3ccccc3s2)NC(=O)[C@H](CC(C)C)NC1=O" was > 4.82 h

Briefly, t1/2 measured for "CC(=O)N[C@H]1Cc2ccc(cc2)OCCCC[C@@H](C(=O)N[C@@H](CCCNC(=N)N)C(=O)c2nc3ccccc3s2)NC(=O)[C@H](Cc2ccccc2)NC1=O" : > 4.82 h
